The values you see were collected from PubChem BioAssay (NCI).

- Test system: HL-60(TB) leukemia
- assay remarks: NCI tumour cell line growth inhibition, 48 h
parameter: TGI

compound: CCCCCOP(=O)(OCCCCC)C(NC(C)=O)(C(=O)OCC)C(F)(F)F (centres undefined)
TGI: > 100 µM
--
compound: Cc1cc(Cl)ccc1N1C(=O)C(=O)C(c2nc3ccccc3s2)C(=O)C1=O
TGI: > 100 µM

Problem: Observed TGI on HL-60(TB) leukemia for CC1OC(OC2C(CO)OC(O[C@H]3CC[C@@]4(C)C(=CC[C@H]5[C@@H]6C[C@@H]7O[C@](O)(CC[C@@H](C)COC8OC(CO)C(O)C(O)C8O)[C@@H](C)[C@@H]7[C@@]6(C)CC[C@@H]54)C3)C(OC3OC(C)C(O)C(O)C3O)C2O)C(O)C(O)C1O (some centres undefined) , please.
Solution: 4.14 µM

Problem: Then this compound: `CNCCNc1nc2ccccc2c2c(=O)c3cccc(OC)c3sc12`
Solution: 3.64 µM

Problem: Then this compound: C#CCNC(Cc1ccccc1)C(=O)O (centres undefined)
Solution: > 100 µM

Problem: Then this compound: C[C@H](NC(=O)OC1C2C=CC(O)C1CC2)c1ccccc1 (some centres undefined)
Solution: > 100 µM

Problem: Then this compound: `N#C/C(=C/N1CCN(C(=O)c2ccco2)C1=S)C(N)=O`
Solution: 57.3 µM

Problem: Then this compound: `O=[N+]([O-])c1ccccc1S(=O)(=O)N1CCCc2cc(Cl)ccc21`
Solution: 72.2 µM

Problem: Then this compound: `NCCOc1ccccn1`
Solution: > 100 µM
